conditions: in toluene, 308.17 K
Quantity: solubility (mole fraction)
Numbers only.

Query: Could you tell me which solubility (mole fraction) is on file for O=P1(O)OCC2(CO1)COP(=O)(O)OC2 (stereo unspecified) ?
Response: 0.00086

* * *

settings: in 2-ethoxyethanol, 323.16 K
Quantity: solubility (mole fraction)
One number for each entry.

Worked cases, answers included:
{"columns": ["Structure", "solubility (mole fraction)"],
 "data": [
  ["O=P(O)(CO)c1ccccc1", 0.0849],
  ["COc1ccc(P(=O)(c2ccc(OC)cc2)c2ccc(OC)cc2)cc1", 0.0223],
  ["O=C(O)CCP(=O)(O)c1ccccc1", 0.0849]
]}

Please look at the following molecule next.
Query: Could you tell me which solubility (mole fraction) is on file for COc1ccc(P(c2ccc(OC)cc2)c2ccc(OC)cc2)cc1 ?
Response: 0.0209
